assay: Solubility of the disodium salt in water; assay type: physicochemical; settings: 25° C.
Assay endpoint: solubility

Molecule | Assay endpoint | Value measured
O=C(Nc1ccc(-c2nn[n-]n2)cc1)c1ccc(-c2nn[n-]n2)cc1.[Na+].[Na+] [Andolast disodium salt] | solubility | ~150 mg/mL
